Tested on: C. krusei ATCC 6258
assayExplanation: Antifungal susceptibility, broth dilution MIC (CLSI M27-A2)
Type: cell-based, Candida krusei
statedConditions: Pichia kudriavzevii, ATCC6258; C. krusei ATCC 6258; broth dilution, RPMI 1640 with MOPS, 48 hours; read-out: Activity against organisms (MIC50) Ck01
testReadout: MIC50 (µg/mL)

These recorded examples may help you get a feel for the data.
O=C(/C=C/c1cccs1)c1ccc(OCc2cn(CC(O)(Cn3cncn3)c3ccc(F)cc3F)nn2)cc1 (stereo not shown) : 4
O=Cc1ccc(OCc2cn(CC(O)(Cn3cncn3)c3ccc(F)cc3F)nn2)cc1 (stereo not shown) : 64
CCCCCN1CCN(c2ccc(C(=O)/C=C/c3ccc(OCc4cn(CC(O)(Cn5cncn5)c5ccc(F)cc5F)nn4)cc3)cc2)CC1 (stereo not shown) : 8

I: Cc1ccc(OCc2cn(CC(O)(Cn3cncn3)c3ccc(F)cc3F)nn2)cc1 (stereo not shown)
II: C=C=CCOc1ccc(/C=C/C(=O)/C=C/c2ccc(OCc3cn(CC(O)(Cn4cncn4)c4ccc(F)cc4F)nn3)cc2)cc1 (stereo not shown)
III: CC(=O)c1ccc(OCc2cn(CC(O)(Cn3cncn3)c3ccc(F)cc3F)nn2)cc1 (stereo not shown)
IV: Cc1ccc(/C=C/C(=O)c2ccc(OCc3cn(CC(O)(Cn4cncn4)c4ccc(F)cc4F)nn3)cc2)cc1 (stereo not shown)
Request: List by increasing MIC50. // respond by listing labels in the order requested
Response: II, IV, I, III
(II: 2 µg/mL, IV: 4 µg/mL, I: 8 µg/mL, III: 64 µg/mL)
